system: hITK enzyme (FLAG-tagged full-length hITK) (Homo sapiens)
Construct: strongly expressing FLAG-tagged full-length hITK in Sf9 cells; FLAG; made in house; host or cells: Sf9 insect cells (ITK); Escherichia coli (GST-SLP76 substrate)
Sequence (Q08881 1-620): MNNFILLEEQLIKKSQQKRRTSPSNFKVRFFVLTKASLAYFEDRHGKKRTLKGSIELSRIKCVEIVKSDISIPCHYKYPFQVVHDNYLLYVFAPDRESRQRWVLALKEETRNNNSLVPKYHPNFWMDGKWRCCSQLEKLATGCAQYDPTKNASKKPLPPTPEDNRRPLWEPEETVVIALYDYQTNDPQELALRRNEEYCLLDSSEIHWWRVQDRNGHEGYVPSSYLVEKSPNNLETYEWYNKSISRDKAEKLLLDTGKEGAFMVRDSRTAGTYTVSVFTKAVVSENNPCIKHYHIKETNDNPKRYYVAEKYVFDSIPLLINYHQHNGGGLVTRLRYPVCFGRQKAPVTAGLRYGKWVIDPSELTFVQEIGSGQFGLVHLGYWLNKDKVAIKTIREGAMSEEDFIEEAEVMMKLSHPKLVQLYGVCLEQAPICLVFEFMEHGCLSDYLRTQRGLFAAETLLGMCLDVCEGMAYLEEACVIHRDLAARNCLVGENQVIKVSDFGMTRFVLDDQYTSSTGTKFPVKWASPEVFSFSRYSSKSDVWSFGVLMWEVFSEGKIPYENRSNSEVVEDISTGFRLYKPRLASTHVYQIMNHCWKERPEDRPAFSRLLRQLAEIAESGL
experiment.notes: ITK inhibitory activity (HTRF kinase assay, biotinylated GST-SLP76 substrate)
Type: biochemical
particulars: IC50 calculated from the 2 test compound concentrations sandwiching 50% ITK inhibitory rate
recorded.endpoint: IC50 (nM)

compound	IC50 [nM]
CC(O)C(=O)N(C)c1ccc2cc(-c3n[nH]c4c3CCC(C)(C)C4)[nH]c2c1 (stereo not drawn) [Example 34]	5

1 = CN(C(=O)C(CO)OC1CCCC1)c1ccc2cc(-c3n[nH]c4c3CCC(C)(C)C4)[nH]c2c1 (stereo not drawn)
2 = CN(C(=O)CO)c1ccc2[nH]c(-c3n[nH]c4c3CCC(C)(C)C4)cc2c1
3 = CCN(C(=O)CN1C[C@@H](C)OCC1=O)c1ccc2cc(-c3n[nH]c4c3CCC(C)(C)C4)[nH]c2c1
List items by IC50 in falling order. I'd appreciate it if you listed the labels in the requested order.
2, 1, 3
(2: 135 nM, 1: 5 nM, 3: 2 nM)

====

system: hITK enzyme (FLAG-tagged full-length hITK) (Homo sapiens, UniProt Q08881)
Construct: strongly expressing FLAG-tagged full-length hITK in Sf9 cells; FLAG; made in house; host or cells: Sf9 insect cells (ITK); Escherichia coli (GST-SLP76 substrate)
experiment.notes: ITK inhibitory activity (HTRF kinase assay, biotinylated GST-SLP76 substrate)
Format: biochemical
particulars: IC50 calculated from the 2 test compound concentrations sandwiching 50% ITK inhibitory rate
recorded.endpoint: IC50 (µM)

Some solved entries appear below for comparison.
compound	IC50 [µM]
CN(C(=O)C1CCCCC1)c1ccc2cc(-c3n[nH]c4c3CCC(C)(C)C4)[nH]c2c1	0.012
CC1CCN(CC(=O)N(C)c2ccc3cc(-c4n[nH]c5c4CCC(C)(C)C5)[nH]c3c2)C1=O (centres unmarked)	0.001
COC1CCC(CC(=O)N(C)c2ccc3cc(-c4n[nH]c5c4CCC(C)(C)C5)[nH]c3c2)CC1 (centres unmarked)	0.007
CCN(C(=O)COC)c1ccc2cc(-c3n[nH]c4c3CCC(C)(C)C4)[nH]c2c1	0.004
CC1(C)CCc2c(-c3cc4ccc(N(CCO)C(=O)C5CCOC5)cc4[nH]3)n[nH]c2C1 (centres unmarked)	0.002

I = CC(=O)Nc1ccc2cc(-c3n[nH]c4c3CCC(C)(C)C4)[nH]c2c1
II = CNC(=O)c1ccc2[nH]c(-c3n[nH]c4c3CCC(C)(C)C4)cc2c1
III = CC(C(=O)N(C)c1ccc2cc(-c3n[nH]c4c3CCC(C)(C)C4)[nH]c2c1)N1CCCCC1 (centres unmarked)
IV = CN(C)CCCN(C(=O)C1CCOCC1)c1ccc2cc(-c3n[nH]c4c3CCC(C)(C)C4)[nH]c2c1
Please list these in order of increasing IC50. Thank you! I'd appreciate it if you listed the labels in the requested order.
IV, III, II, I

I = CCC(=O)N(C)c1ccc2[nH]c(-c3n[nH]c4c3CCC(C)(C)C4)cc2c1
II = CN(C(=O)C(C)(C)N1CCOCC1)c1ccc2cc(-c3n[nH]c4c3CCC(C)(C)C4)[nH]c2c1
Exercise: compare I and II ; which one has the greater IC50? Provide the label of your selected option as the answer.
I

I = CC1(C)CCc2c(-c3cc4cc(C(=O)Nc5nnc(O)s5)ccc4[nH]3)n[nH]c2C1
II = COC1CCCC(C(=O)N(C)c2ccc3cc(-c4n[nH]c5c4CCC(C)(C)C5)[nH]c3c2)C1 (centres unmarked) [Example 100]
Would you kindly point out which of I and II has the smaller IC50 figure? Provide the label of your selected option as the answer.
II

P = COCCN(C(=O)C(C)C1CCOCC1)c1ccc2cc(-c3n[nH]c4c3CCC(C)(C)C4)[nH]c2c1 (centres unmarked)
Q = CC1(C)CCc2c(-c3cc4ccc(N(CCO)C(=O)CN5CCCCC5=O)cc4[nH]3)n[nH]c2C1
Exercise: compare P and Q ; which one has the greater IC50? Provide the label of your selected option as the answer.
P

====

system: hITK enzyme (FLAG-tagged full-length hITK) (Homo sapiens, UniProt Q08881)
Construct: strongly expressing FLAG-tagged full-length hITK in Sf9 cells; FLAG; made in house; host or cells: Sf9 insect cells (ITK); Escherichia coli (GST-SLP76 substrate)
experiment.notes: ITK inhibitory activity (HTRF kinase assay, biotinylated GST-SLP76 substrate)
Type: biochemical
particulars: IC50 calculated from the 2 test compound concentrations sandwiching 50% ITK inhibitory rate
pIC50: −log10 of the molar value.
recorded.endpoint: pIC50

compound	pIC50
COCC(C)C(=O)N(C)c1ccc2cc(-c3n[nH]c4c3CCC(C)(C)C4)[nH]c2c1 (stereo not shown) [Example 58]	8.22

a = CN(C)CCCN(C(=O)C1CCCO1)c1ccc2cc(-c3n[nH]c4c3CCC(C)(C)C4)[nH]c2c1 (stereo not shown) [Example 224]
b = CN(C(=O)CC1CCCCC1)c1ccc2cc(-c3n[nH]c4c3CCC(C)(C)C4)[nH]c2c1 [Example 72]
Would you kindly point out which of a and b has the smaller pIC50 figure? Provide the label of your selected option as the answer.
b

A = CC1(C)CCc2c(-c3cc4cc(C(=O)Nc5ccccc5)ccc4[nH]3)n[nH]c2C1 [Example 293]
B = CN(C(=O)C(O)C1CCOCC1)c1ccc2cc(-c3n[nH]c4c3CCC(C)(C)C4)[nH]c2c1 (stereo not shown) [Example 95]
Exercise: compare A and B ; which one has the greater pIC50? Provide the label of your selected option as the answer.
B

====

system: hITK enzyme (FLAG-tagged full-length hITK) (Homo sapiens, UniProt Q08881)
Construct: strongly expressing FLAG-tagged full-length hITK in Sf9 cells; FLAG; made in house; host or cells: Sf9 insect cells (ITK); Escherichia coli (GST-SLP76 substrate)
experiment.notes: ITK inhibitory activity (HTRF kinase assay, biotinylated GST-SLP76 substrate)
Type: biochemical
particulars: IC50 calculated from the 2 test compound concentrations sandwiching 50% ITK inhibitory rate
pIC50: −log10 of the molar value.
recorded.endpoint: pIC50

compound	pIC50
CN(C(=O)CN1CCCCC1)c1ccc2cc(-c3n[nH]c4c3CCC(C)(C)C4)[nH]c2c1 [Example 79]	7.89
COCCN(C(=O)CC1CCOCC1)c1ccc2cc(-c3n[nH]c4c3CCC(C)(C)C4)[nH]c2c1 [Example 269]	8.22
CC(C(=O)N(C)c1ccc2cc(-c3n[nH]c4c3CCC(C)(C)C4)[nH]c2c1)N1CCOCC1=O (stereo not shown) [Example 147]	8.10

P = CC(C(=O)N(C)c1ccc2cc(-c3n[nH]c4c3CCC(C)(C)C4)[nH]c2c1)N1CCC[C@H](O)C1 (stereo partly shown) [Example 111]
Q = COCC(=O)N(C)c1ccc2cc(-c3n[nH]c4c3CC[C@@H](C)C4)[nH]c2c1 [Example 353]
Would you kindly point out which of P and Q has the smaller pIC50 figure? Provide the label of your selected option as the answer.
Q

====

system: hITK enzyme (FLAG-tagged full-length hITK) (Homo sapiens, UniProt Q08881)
Construct: strongly expressing FLAG-tagged full-length hITK in Sf9 cells; FLAG; made in house; host or cells: Sf9 insect cells (ITK); Escherichia coli (GST-SLP76 substrate)
experiment.notes: ITK inhibitory activity (HTRF kinase assay, biotinylated GST-SLP76 substrate)
Assay type: biochemical
particulars: IC50 calculated from the 2 test compound concentrations sandwiching 50% ITK inhibitory rate
pIC50: −log10 of the molar value.
recorded.endpoint: pIC50

Some solved entries appear below for comparison.
compound	pIC50
CO[C@H]1CCCN(C(C)C(=O)N(C)c2ccc3cc(-c4n[nH]c5c4CCC(C)(C)C5)[nH]c3c2)C1 (some centres unmarked) [Example 116]	8.05
Cn1cncc1CNC(=O)c1ccc2[nH]c(-c3n[nH]c4c3CCC(C)(C)C4)cc2c1 [Example 329]	7.89

I = CN(CC(C)(C)C)C(=O)c1ccc2cc(-c3n[nH]c4c3CCC(C)(C)C4)[nH]c2c1 [Example 15]
II = CC(=O)N(C)[C@@H](C)C(=O)N(C)c1ccc2cc(-c3n[nH]c4c3CCC(C)(C)C4)[nH]c2c1 [Example 202]
Would you kindly point out which of I and II has the smaller pIC50 figure? Provide the label of your selected option as the answer.
II
(II: 7.85, I: 8.05)
